// provenance: ChEMBL document CHEMBL1201862

test system: HT-29; experiment: NCI tumour cell line growth inhibition, 48 h
Active and inactive are the calls of the source. No stated cut-off is given here; in the data, active = GI50 up to about 1.1 µM and inactive = higher.
Hello, when you answer, please use one of the following outcomes: Y for active, N for inactive

{"compound": "COc1cc(-c2c(C#N)c(N)c(C#N)c3c2COc2ccccc2-3)cc(OC)c1OC", "group-label": "N"}
{"compound": "CCCCN(CCCC)CC(O)c1cc(-c2ccc(Cl)c(Cl)c2)nc2c(Cl)cc(Cl)cc12 (stereo unspecified)", "group-label": "N"}
{"compound": "O=S(=O)(Cc1cnc(O)nc1O)Cc1cnc(O)nc1O", "group-label": "N"}
{"compound": "COC(=O)C1C/C(=C/N(C)C)C(=S)N1 (stereo unspecified)", "group-label": "N"}
{"compound": "CC1=[N+](C)CCN1C", "group-label": "N"}

Ask: Recorded call for C=C1C(=O)OC2C1CCC(C)C1(O)C=CC(=O)C21C (stereo unspecified) ?
Reply: N

Ask: Hi, sorry to bother you, what did the test record for Fc1cccc(F)c1C1SCc2nc3ccc(Cl)cc3n21 (stereo unspecified) ?
Reply: N

Ask: Fill in: this test's call for Nc1nc(N)c2c(CCc3ccc(C(=O)N[C@@H](CCC(=O)O)C(=O)O)cc3)ccnc2n1 is ___
Reply: Y

Ask: GET /call?item= CCN(CC)C(=S)SS(=O)(=O)c1ccc(N)cc1 returns the recorded outcome of this test.
Reply: N
